Origin of the recorded values: the RNAGym collection of RNA variant scans (doi:10.7554/elife.80360)

B1: HDV Ribozyme (parent)
chain: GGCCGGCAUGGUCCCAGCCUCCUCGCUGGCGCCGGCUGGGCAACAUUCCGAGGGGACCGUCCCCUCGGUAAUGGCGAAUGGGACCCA

Variants of: B1
Assay: self-cleavage, relative activity (ratio to wild type); higher = more cleavage; co-transcriptional
self-cleavage reference
Measured Attribute: self-cleavage

mutation_spec="G5U C30A" measured_attribute=self-cleavage result_value=0.0462
mutation_spec="A56G G80C" measured_attribute=self-cleavage result_value=0.259
mutation_spec="C4U C86U" measured_attribute=self-cleavage result_value=0.889
mutation_spec="C7U G55C" measured_attribute=self-cleavage result_value=0.736
mutation_spec="G1A C48A" measured_attribute=self-cleavage result_value=0
mutation_spec="U20C G31C" measured_attribute=self-cleavage result_value=0.0594
mutation_spec="G38A C44G" measured_attribute=self-cleavage result_value=0.0449
mutation_spec="U9G G50U" measured_attribute=self-cleavage result_value=1.15
mutation_spec="G2C C4G" measured_attribute=self-cleavage result_value=0.794
mutation_spec="G11U A51U" measured_attribute=self-cleavage result_value=0.506
mutation_spec="C62A C86G" measured_attribute=self-cleavage result_value=0.975
mutation_spec="U23A G55U" measured_attribute=self-cleavage result_value=0.976
mutation_spec="C64U U79C" measured_attribute=self-cleavage result_value=0.306
mutation_spec="C19U G31C" measured_attribute=self-cleavage result_value=0.0845
mutation_spec="C49A A70G" measured_attribute=self-cleavage result_value=0.689
mutation_spec="G29U C58A" measured_attribute=self-cleavage result_value=0.204
mutation_spec="C32G A43C" measured_attribute=self-cleavage result_value=0.0536
mutation_spec="C32G A83U" measured_attribute=self-cleavage result_value=0.166
mutation_spec="G6U C84U" measured_attribute=self-cleavage result_value=0.208
mutation_spec="C44U C86G" measured_attribute=self-cleavage result_value=0.928
mutation_spec="C36A G81U" measured_attribute=self-cleavage result_value=0.0523
mutation_spec="G17C G50A" measured_attribute=self-cleavage result_value=0.148
